biological target: HLA-A*30:02; assay: IEDB peptide-MHC binding, purified MHC/competitive/radioactivity; filed as Kd, often an IC50 or EC50 that approximates it; bounds were set here for any values at or beyond the usual limits of such assays; conditions: source organism: Mammarenavirus machupoense
pKd: −log10 of the molar value.
measured-quantity: pKd

1. CGDPSSLDY 6.06

====

biological target: HLA-A*02:19; assay: IEDB peptide-MHC binding, purified MHC/competitive/fluorescence; filed as Kd, often an IC50 or EC50 that approximates it; bounds were set here for any values at or beyond the usual limits of such assays; settings: source organism: Bacillus anthracis str. A0488
measured-quantity: Kd

1. IQKGMFVVK ≥ 20 µM
